Values from ChEMBL document CHEMBL1201862

tested on: SNB-19; assay: NCI tumour cell line growth inhibition, 48 h
Active and inactive are the calls of the source. Rule as the data show it: active = GI50 up to about 1.1 µM and inactive = higher.
PROPERTY: GI50

1) CC1(C)[C@@H](Cn2cc(I)c(=O)[nH]c2=O)CC[C@@]1(C)CO = > 100 µM (inactive)
2) COc1cc2c(c3oc(-c4ccc5c(c4)OCO5)c(O)c(=O)c13)CCC(C)(C)O2 = > 100 µM (inactive)

(Q) Field request: GI50 | item: COc1ccc(NC(=O)CC(=O)n2nc(-c3ccccc3)c(/N=N/c3ccc(C)cc3)c2-c2ccccc2)cc1
(A) 21.5 µM (inactive)

(Q) Could you do the same for O=C1C(/N=N/c2ccc(-c3nc4ccccc4[nH]3)cc2)NC(=S)N1c1ccccc1 (centres undefined) , please?
(A) > 100 µM (inactive)

(Q) Now this one: CN(C)C(=O)C(F)(F)C(c1ccccc1)C1C(=O)N(C)C(=O)N(C)C1=O (centres undefined)
(A) > 100 µM (inactive)

(Q) Would you mind doing O=Cc1c2c(cc3c1CC1(C3)Cc3cc4c(c(C=O)c3C1)CCCC4)CCCC2 as well?
(A) 98.9 µM (inactive)

(Q) Then what about the molecule CC1(C(=O)O)CCC[C@@]2(C)C1CC[C@@]1(C)c3cocc3CCC21 (some centres undefined) ?
(A) > 100 µM (inactive)

(Q) Now give it for CC(C)=CCC/C(C)=C/CC/C(C)=C/CC/C(C)=C/CC/C(C)=C/CC/C(C)=C/CC/C(C)=C/CC/C(C)=C/CC/C(C)=C/CO too.
(A) > 100 µM (inactive)

(Q) Also CN1CCN(C(=S)N(C(=O)c2cccs2)C2CCCCC2)CC1 , if possible.
(A) > 100 µM (inactive)

(Q) // next record COc1cc2c(cc1OC)C1Cc3ccccc3CCN1CC2 (centres undefined)
(A) > 100 µM (inactive)

(Q) Can you handle O=c1ss/c(=N\c2ccccc2)n1-c1ccccc1 next?
(A) 62.5 µM (inactive)

(Q) Then COc1nc(C#CCCCC#N)nc(OC)n1 ?
(A) 77.3 µM (inactive)

(Q) And what about the molecule COc1ccc2oc(-c3ccc(OC)c(OC)c3OC)cc(=O)c2c1 ?
(A) 18.9 µM (inactive)

(Q) Try this molecule next: O=C1OC(c2ccc(Cl)c3ccccc23)c2ccccc21 (centres undefined)
(A) > 100 µM (inactive)

(Q) Also NC(=O)C(N)Cc1ccc(O)cn1 (centres undefined) ?
(A) > 100 µM (inactive)

(Q) Param item: COCC1N=C(c2cc(OC)c(OC)c(OC)c2-c2cc3c(cc2[C@H](C)O)OCO3)O[C@H]1c1ccccc1 (some centres undefined)
(A) 61 µM (inactive)

* * *

test system: RXF 631; assay: NCI tumour cell line growth inhibition, 48 h
Activity calls are given as the source filed them. Cut-off read from the data, not from the text of the source: active = GI50 up to about 1.1 µM and inactive = higher.
GI50 for assorted compounds

Please review the entries below; each comes with its answer.
1. O=C1OC(c2ccc(Cl)c3ccccc23)c2ccccc21 (stereo not drawn) = > 100 µM (inactive)
2. NC(=O)N/N=C/C(/C=N/NC(N)=O)[N+](=O)[O-] = > 100 µM (inactive)

Consider the additional compound presented here.
(Q) # query: GI50 of entry CCCNC1=C(C(=O)OCC)C(=O)CO1
(A) > 100 µM (inactive)

* * *

GI50 reference
tested on: DU-145; assay: NCI tumour cell line growth inhibition, 48 h
Calls of active or inactive are those of the source. Cut-off read from the data, not from the text of the source: active = GI50 up to about 1.1 µM and inactive = higher.

1) O=C(O)CC(Nc1ccccc1)C(=O)O (configuration not stated) = > 100 µM (inactive)
2) CCOC(=O)/C(C[C@H]1OC(C)(C)O[C@@H]1[C@H]1COC(C)(C)O1)=N/O = > 100 µM (inactive)
3) COc1ccc(NC(=O)CC(=O)n2nc(-c3ccccc3)c(/N=N/c3ccc(C)cc3)c2-c2ccccc2)cc1 = > 59.7 µM (inactive)

(Q) Value lookup for GI50; key = CCCCCCCCCCCCCCCCCCOCC(CO[PH](=O)O)OCCCCCCCCCCCCCCCCCC (configuration not stated)
(A) > 50 µM (inactive)

(Q) Check NC(CSC1c2ccccc2-c2ccccc21)C(=O)O (configuration not stated) too.
(A) > 100 µM (inactive)

(Q) Likewise for COC(=O)/C=C1\CCCN1CCc1cc2c(cc1CC#N)OCO2 ?
(A) 80.4 µM (inactive)

(Q) Item: CCN(CC)C(=S)SC(C(=O)Nc1nnc(-c2ccccc2)o1)c1ccccc1 (configuration not stated)
(A) 17.9 µM (inactive)
